Where do these numbers come from? They come from patent US20200283478A1.

Target: T1, His-tagged, full-length PCSK9 (human, UniProt Q8NBP7 31-692)
T1 construct: secreted PCSK9 is autocatalytically cleaved into prodomain and catalytic domain + CRD (from S153), which stay associated; also called His-PCSK9; proprotein convertase subtilisin/kexin type 9; not shown: His tag
T1 sequence (Q8NBP7 31-692 limits assumed): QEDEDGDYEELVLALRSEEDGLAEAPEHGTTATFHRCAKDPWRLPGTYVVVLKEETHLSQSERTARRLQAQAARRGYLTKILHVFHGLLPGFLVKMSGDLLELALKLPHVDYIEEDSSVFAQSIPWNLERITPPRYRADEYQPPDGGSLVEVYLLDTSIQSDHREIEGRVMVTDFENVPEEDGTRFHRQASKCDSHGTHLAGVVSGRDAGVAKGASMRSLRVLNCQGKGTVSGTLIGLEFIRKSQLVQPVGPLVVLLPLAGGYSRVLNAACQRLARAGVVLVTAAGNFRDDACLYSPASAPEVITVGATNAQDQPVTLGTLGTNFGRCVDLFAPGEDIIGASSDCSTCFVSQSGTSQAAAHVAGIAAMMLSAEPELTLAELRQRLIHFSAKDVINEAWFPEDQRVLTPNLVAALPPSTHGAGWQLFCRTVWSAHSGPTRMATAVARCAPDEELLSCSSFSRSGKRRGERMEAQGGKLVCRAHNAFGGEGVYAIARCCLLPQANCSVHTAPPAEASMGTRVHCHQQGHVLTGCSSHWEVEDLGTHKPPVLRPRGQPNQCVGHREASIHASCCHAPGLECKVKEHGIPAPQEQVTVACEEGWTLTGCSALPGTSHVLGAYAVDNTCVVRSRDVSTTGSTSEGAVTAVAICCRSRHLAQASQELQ
Assay: TR-FRET competition (PCSK9/EGF(A) assay); competitor EGF(A)-Fc;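 also: proximity signal from anti-His APC on PCSK9 paired with anti-Fc europium on the Fc ligand, read as normalized TR-FRET ratio across compound dilutions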
pIC50: −log10 of the molar value. Bridge positions count the residues as written; N and C are the ends.
value_type: pIC50

# input // returns reported pIC50 for input Ac-CRLPWNLQRIALPC-NH2 (disulfide 1-14; SMILES CC[C@H](C)[C@@H]1NC(=O)[C@H](CCCNC(=N)N)NC(=O)[C@H](CCC(N)=O)NC(=O)[C@H](CC(C)C)NC(=O)[C@H](CC(N)=O)NC(=O)[C@H](Cc2c[nH]c3ccccc23)NC(=O)[C@@H]2CCCN2C(=O)[C@H](CC(C)C)NC(=O)[C@H](CCCNC(=N)N)NC(=O)[C@@H](NC(C)=O)CSSC[C@@H](C(N)=O)NC(=O)[C@@H]2CCCN2C(=O)[C@H](CC(C)C)NC(=O)[C@H](C)NC1=O) [Compound 70 (Ac-CRLPWNLQRIALPC-NH2)]
# output < 4.30
